FYI, the data here is from the supplement of paper PMC7125110.

Reported self-cleavage kobs at 10000 uM GlcN6P values for the following variants.
B1: glmS ribozyme (parent)
chain: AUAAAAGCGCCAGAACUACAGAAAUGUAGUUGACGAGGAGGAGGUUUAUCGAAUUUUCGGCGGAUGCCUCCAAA

- Variants of: B1
- assaySummary: self-cleavage kobs at 10000 uM GlcN6P; higher = faster cleavage; RNA array
- setupConditions: with glucosamine-6-phosphate
Variants at the floor of the assay were thinned out.

Consider the worked cases shown below.
A14G C16A G40C G63U	< 1e-05 s⁻¹
C34G G40C	< 1e-05 s⁻¹
G32C G43U	< 1e-05 s⁻¹

Query: Output measured self-cleavage kobs at 10000 uM GlcN6P for this item: U31A G51A
Response: < 1e-05 s⁻¹

Query: Output measured self-cleavage kobs at 10000 uM GlcN6P for this item: A6G G37A U46A U54A
Response: < 1e-05 s⁻¹

Query: Output measured self-cleavage kobs at 10000 uM GlcN6P for this item: U56C G59C C68G
Response: < 1e-05 s⁻¹

Query: Output measured self-cleavage kobs at 10000 uM GlcN6P for this item: G35U G41U C67G
Response: < 1e-05 s⁻¹

Query: Output measured self-cleavage kobs at 10000 uM GlcN6P for this item: C8U G41A G59C
Response: < 1e-05 s⁻¹
